FYI, the data here is from patent US6545007B2.

- Tested on: mock-infected MT-4 cells
- ASSAY EXPLANATION: Cytotoxicity: viability of mock-infected cells by the MTT method
- Format: cell-based, human
MEASURED ENDPOINT: CC50

1. CCC(C)Sc1nc(Cc2ccccc2Cl)c(C)c(=O)[nH]1 (stereo not shown): > 200 µM
2. CSc1nc(C(C)c2c(F)cccc2F)c(C)c(=O)[nH]1 (stereo not shown): > 200 µM
3. CCC(c1ccccc1)c1cc(=O)[nH]c(SC2CCCCC2)n1 (stereo not shown): > 200 µM

The molecule identified as Cc1c(Cc2c(Cl)cccc2Cl)nc(SCC(C)C)[nH]c1=O registered its CC50 at > 200 µM
